Test: Metabolic stability in CD-1 mouse liver microsomes assessed as parent compound remaining at 10 uM preincubated for 10 mins in water bath followed by NADPH addition and measured after 60 mins by LC-MS/MS analysis
Assay type: ADME, Microsome
Conditions: read-out: Stability
experimental endpoint: remaining at 1 h, 10 µM (%)
Write the value in % as a bare number.

Find the recorded remaining at 1 h, 10 µM belonging to CNC(=O)[C@H](C)Cn1cnc2ccc(-c3cnc(OC)c(NS(=O)(=O)c4ccc(F)cc4Cl)c3)cc2c1=O and report it.
32.7

###

Target: Phosphatidylinositol 4,5-bisphosphate 3-kinase catalytic subunit alpha isoform (Homo sapiens, UniProt P42336)
Sequence (P42336 whole entry, canonical isoform): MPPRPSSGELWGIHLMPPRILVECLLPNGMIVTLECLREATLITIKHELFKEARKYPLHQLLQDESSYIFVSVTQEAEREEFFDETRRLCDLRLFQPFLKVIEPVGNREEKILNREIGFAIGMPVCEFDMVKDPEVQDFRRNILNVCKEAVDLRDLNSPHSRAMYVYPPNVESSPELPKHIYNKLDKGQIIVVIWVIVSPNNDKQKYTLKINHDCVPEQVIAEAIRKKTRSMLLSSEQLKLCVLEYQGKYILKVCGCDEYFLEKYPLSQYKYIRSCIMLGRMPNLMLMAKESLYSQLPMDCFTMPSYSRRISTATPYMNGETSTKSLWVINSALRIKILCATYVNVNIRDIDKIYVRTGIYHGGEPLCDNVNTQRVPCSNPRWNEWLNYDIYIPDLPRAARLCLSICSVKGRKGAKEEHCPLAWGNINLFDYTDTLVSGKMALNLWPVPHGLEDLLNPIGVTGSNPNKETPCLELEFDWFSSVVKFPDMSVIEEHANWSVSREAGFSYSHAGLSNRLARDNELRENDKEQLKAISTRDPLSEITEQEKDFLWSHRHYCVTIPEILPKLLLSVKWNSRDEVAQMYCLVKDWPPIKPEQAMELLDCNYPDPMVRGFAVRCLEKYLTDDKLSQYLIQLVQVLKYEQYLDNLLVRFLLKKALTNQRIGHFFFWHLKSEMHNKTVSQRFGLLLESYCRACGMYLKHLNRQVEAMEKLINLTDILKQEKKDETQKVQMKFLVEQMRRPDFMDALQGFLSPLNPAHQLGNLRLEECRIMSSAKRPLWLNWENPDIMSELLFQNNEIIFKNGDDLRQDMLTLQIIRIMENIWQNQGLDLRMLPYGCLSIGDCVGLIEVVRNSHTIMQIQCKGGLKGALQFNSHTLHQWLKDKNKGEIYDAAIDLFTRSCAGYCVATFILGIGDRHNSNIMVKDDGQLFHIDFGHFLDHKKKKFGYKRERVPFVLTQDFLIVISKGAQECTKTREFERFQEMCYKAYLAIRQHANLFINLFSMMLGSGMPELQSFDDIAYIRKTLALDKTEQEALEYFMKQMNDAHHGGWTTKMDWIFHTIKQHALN
Assay: Inhibition of PI3Kalpha (unknown origin) using PIP2:3PS peptide as substrate preincubated for 15 mins followed by ATP addition at Km concentration and further incubated for 150 mins by ADP-Glo assay
pIC50: −log10 of the molar value.
The label depends only on pIC50: rule met if it is at least 9, rule not met if it is smaller.

Kindly determine if pIC50 recorded for COc1ncc(-c2ccc3ncn(C[C@@H](C)C(=O)NC4CCC4)c(=O)c3c2)cc1NS(=O)(=O)c1ccc(F)cc1Cl is above or exactly 9.
rule not met

Kindly determine if pIC50 recorded for COc1ncc(-c2ccc3ncn(C[C@@H](C)C(=O)NC4COC4)c(=O)c3c2)cc1NS(=O)(=O)c1ccc(F)cc1Cl is above or exactly 9.
rule not met

Kindly determine if pIC50 recorded for COc1ncc(-c2ccc3ncc(NC(=O)N4CCC[C@H]4C(N)=O)c(=O)n3c2)cc1NS(=O)(=O)c1ccc(F)cc1Cl is above or exactly 9.
rule met

Kindly determine if pIC50 recorded for COc1ncc(-c2ccc3ncn(CC(F)(F)C(N)=O)c(=O)c3c2)cc1NS(=O)(=O)c1ccc(F)cc1Cl is above or exactly 9.
rule not met

Kindly determine if pIC50 recorded for COc1ncc(-c2ccc3ncn(C[C@@H](C)C(=O)NC4CC4(F)F)c(=O)c3c2)cc1NS(=O)(=O)c1ccc(F)cc1Cl (stereo partly drawn) is above or exactly 9.
rule not met

Kindly determine if pIC50 recorded for CNC(=O)[C@H](C)Cn1cnc2ccc(-c3cnc(COC)c(NS(=O)(=O)c4ccc(F)cc4Cl)c3)cc2c1=O is above or exactly 9.
rule not met
